- measurement_description: Ca^2+ affinity (dissociation constant) of the chelators
- Type: binding
- stated_conditions: after photolysis of nitr-7 to the nitrosobenzophenone; read-out: dissociation constant for Ca^2+ upon photolysis
quantity_name: pKd
pKd is a log-scale quantity: -log10 of the concentration expressed in molar.

Prompt: Suppose we examine the compound Cc1ccc(N(CC(=O)O)CC(=O)O)c(O[C@@H]2CCC[C@@H]2Oc2cc(C(=O)c3cc4c(cc3N=O)OCO4)ccc2N(CC(=O)O)CC(=O)O)c1 (relative stereo) ; what pKd value has been reported?
Response: 5.52

---

- measurement_description: Mg^2+ affinity (dissociation constant) of the chelators
- Type: binding
- stated_conditions: 22° C., 0.1M ionic strength; read-out: dissociation constant for Mg^2+
quantity_name: pKd
Field pKd (float): negative decimal logarithm of the concentration in molar.

Prompt: What measured pKd goes with Cc1ccc(N(CC(=O)O)CC(=O)O)c(O[C@H]2CCC[C@H]2Oc2cc(C(O)c3cc4c(cc3[N+](=O)[O-])OCO4)ccc2N(CC(=O)O)CC(=O)O)c1 (relative stereo) [nitr-7] ?
Response: 2.24
